- Tested on: L1210 leukemia ip in BDF1 mice, survival T/C
- Assay summary: NCI In Vivo Anticancer Drug Screen. Data for tumor model L1210 Leukemia (intraperitoneal) in B6D2F1 (BDF1) mice
- Setup conditions: endpoint: mean survival time; dose: 100.0 mg/kg/injection; schedule: Q04DX003 (ip); vehicle: Klucel (hydroxypropylcellulose) (HPC); higher = longer survival
Toxic doses and inconclusive results are not listed.
Parameter T/C: see the listing below.

See these solved cases before continuing.
> print(dat)
                                   compound            result
1                      S=c1cc[nH]c(=S)[nH]1   97 % of control
2            O=S(=O)(Cl)c1ccccc1S(=O)(=O)Cl   95 % of control
3         Cc1cc2oc(/C=N/N3CCOCC3)c(C)c2cc1C   90 % of control
4                  CCOC(=O)c1cnc(SC)nc1NCCO   97 % of control
5                            Clc1ccc(Cl)nc1   98 % of control
6  O=C(NC(Cc1cn(Cc2ccccc2)cn1)C(=O)O)OCc1ccccc1 (centres undefined)  104 % of control

Now look at this entry.
What value of measured T/C is listed for Clc1cccc(NCCc2ccccc2)c1 ?
94 % of control

====

- Tested on: L1210 leukemia ip in BDF1 mice, survival T/C
- Assay summary: NCI In Vivo Anticancer Drug Screen. Data for tumor model L1210 Leukemia (intraperitoneal) in B6D2F1 (BDF1) mice
- Setup conditions: endpoint: mean survival time; dose: 200.0 mg/kg/injection; schedule: Q01DX009 (ip); vehicle: Klucel (hydroxypropylcellulose) (HPC); higher = longer survival
Toxic doses and inconclusive results are not listed.
Reported metric: T/C

See these solved cases before continuing.
> print(dat)
                                   compound                               target.desc  reported.metric            result
1  CC(C)(C)OC(=O)NC(CSCc1ccccc1)C(=O)O (stereo not given)  L1210 leukemia ip in BDF1 mice, survival T/C              T/C   98 % of control
2     O=S(=O)(O)c1ccc(-c2nc3ccccc3[nH]2)cc1  L1210 leukemia ip in BDF1 mice, survival T/C              T/C   96 % of control
3           COc1ccc(OC)c(NC(=O)NC(C)(C)C)c1  L1210 leukemia ip in BDF1 mice, survival T/C              T/C  103 % of control
4         CC(=O)OC(C)(C)/N=N/C(C)(C)OC(C)=O  L1210 leukemia ip in BDF1 mice, survival T/C              T/C  101 % of control
5  Clc1ccc(/C(=[C](\[Hg]/[C](=C(\c2ccccc2)c2ccc(Cl)cc2)c2ccccc2)c2ccccc2)c2ccccc2)cc1  L1210 leukemia ip in BDF1 mice, survival T/C              T/C  102 % of control

Lookup: T/C / L1210 leukemia ip in BDF1 mice, survival T/C / COC(=O)c1ccc(C(=O)O)cc1[N+](=O)[O-]
102 % of control

Lookup: T/C / L1210 leukemia ip in BDF1 mice, survival T/C / C=CCOP(=O)(OCC=C)OCC=C
98 % of control

Lookup: T/C / L1210 leukemia ip in BDF1 mice, survival T/C / COc1ccc(C2NC(=O)c3ccccc3N2)c(OC)c1OC (stereo not given)
100 % of control

Lookup: T/C / L1210 leukemia ip in BDF1 mice, survival T/C / CCOC(=O)c1ccc(NC(=O)Nc2ccc(Cl)cc2)cc1
104 % of control

====

- Tested on: L1210 leukemia ip in BDF1 mice, survival T/C
- Assay summary: NCI In Vivo Anticancer Drug Screen. Data for tumor model L1210 Leukemia (intraperitoneal) in B6D2F1 (BDF1) mice
- Setup conditions: endpoint: mean survival time; dose: 200.0 mg/kg/injection; schedule: Q04DX003 (ip); vehicle: saline with Tween-80; higher = longer survival
Toxic doses and inconclusive results are not listed.
Reported metric: T/C

> print(dat)
                                   compound  reported.metric           result
1  COC1=CC2C3=C(C(NC=O)CCc4cc(O)c(OC)c(OC)c43)C2C1=O (stereo not drawn)              T/C  93 % of control

What value of measured T/C is listed for CCOC(=O)c1cc(=O)n(-c2ccc([N+](=O)[O-])cc2)n1C ?
92 % of control

What value of measured T/C is listed for CCCCOC(=O)c1ccc(OC(=O)Nc2ccc(Cl)cc2)cc1 ?
94 % of control

What value of measured T/C is listed for N/N=C(/C(=O)c1ccccc1)c1ccccc1 ?
95 % of control

What value of measured T/C is listed for Nc1nc(=S)[nH]c2nsnc12 ?
96 % of control

What value of measured T/C is listed for CN(C)C(=O)Sc1cccc([N+](=O)[O-])c1 ?
111 % of control

What value of measured T/C is listed for CCCCCCCCCCCCCCCCS(=O)(=O)c1ccc(S(=O)(=O)F)cc1NC(=O)C(F)(F)F ?
93 % of control

====

- Test system: L1210 leukemia ip in BDF1 mice, survival T/C
- Assay summary: NCI In Vivo Anticancer Drug Screen. Data for tumor model L1210 Leukemia (intraperitoneal) in B6D2F1 (BDF1) mice
- Setup conditions: endpoint: mean survival time; dose: 400.0 mg/kg/injection; schedule: Q01DX009 (ip); vehicle: Klucel (hydroxypropylcellulose) (HPC); higher = longer survival
Inconclusive results and toxic doses are left out.
Parameter T/C: see the listing below.

See these solved cases before continuing.
> print(dat)
                  compound.structure.string            result
1                      O=C(NCCCl)NC1CCCCCC1  100 % of control
2  COc1ccc(OC)c(-c2nnc(Nc3ccc(S(=O)(=O)N4CCCCC4)cc3)s2)c1   91 % of control
3            COc1ccccc1NC(=O)NCc1cc(C)ccc1C   93 % of control

Now look at this entry.
What value of measured T/C is listed for Cc1ccc(CNc2ccc(Br)cc2)cc1 ?
94 % of control

====

Parameter T/C: see the listing below.
- System: L1210 leukemia ip in BDF1 mice, survival T/C
- Assay summary: NCI In Vivo Anticancer Drug Screen. Data for tumor model L1210 Leukemia (intraperitoneal) in B6D2F1 (BDF1) mice
- Setup conditions: endpoint: mean survival time; dose: 200.0 mg/kg/injection; schedule: Q04DX002 (ip); vehicle: Klucel (hydroxypropylcellulose) (HPC); higher = longer survival
Inconclusive results and toxic doses are left out.

See these solved cases before continuing.
> print(dat)
                                   compound           result
1                  CC(=O)Cc1cc(C)nc(NC#N)n1  98 % of control
2  Cc1ccc2c(c1)[n+]([O-])c(N)c(C#N)[n+]2[O-]  98 % of control
3  Cc1ccc(OC(C)C(=O)O)c(C)c1 (centres undefined)  98 % of control

Now look at this entry.
What value of measured T/C is listed for Cc1cnc(-n2cc(C)c(-c3ccccc3O)n2)nc1-c1ccccc1O ?
88 % of control

====

- System: L1210 leukemia ip in BDF1 mice, survival T/C
- Assay summary: NCI In Vivo Anticancer Drug Screen. Data for tumor model L1210 Leukemia (intraperitoneal) in B6D2F1 (BDF1) mice
- Setup conditions: endpoint: mean survival time; dose: 200.0 mg/kg/injection; schedule: Q04DX002 (ip); vehicle: saline with Tween-80; higher = longer survival
Toxic doses and inconclusive results are not listed.
Reported metric: T/C

See these solved cases before continuing.
> print(dat)
                                   compound            result
1  O=C(N/N=C\c1cc(Br)cc(Br)c1O)N/N=C/c1cc(Br)cc(Br)c1O   95 % of control
2                 O=C(O)CNC(=O)c1cccc(Cl)c1   95 % of control
3  Cc1ccc(NC(=S)Nc2ccc(Cc3ccc(NC(=S)Nc4ccc(C)cc4)cc3)cc2)cc1  103 % of control
4  CC(C)C(C#Cc1ccccc1)N1CCCCC1 (stereo unspecified)   87 % of control
5               CCCCCCCCCC(=O)Nc1c(C)cccc1C  111 % of control

What value of measured T/C is listed for CCCCOP(=S)(N1CCCCC1)N1CCCCC1 ?
96 % of control

====

- Test system: L1210 leukemia ip in BDF1 mice, survival T/C
- Assay summary: NCI In Vivo Anticancer Drug Screen. Data for tumor model L1210 Leukemia (intraperitoneal) in B6D2F1 (BDF1) mice
- Setup conditions: endpoint: mean survival time; dose: 100.0 mg/kg/injection; schedule: Q01DX001 (ip); vehicle: other
Toxic doses and inconclusive results are not listed. Cut-off read from the data, not from the text of the source: active = T/C of 150% or more; inactive = T/C below 125%.
Pick one: label 1 = active, label 0 = inactive

Tell me the assay call for C=C(C)C#CC(O)(C(=O)OCC)C1CCCC1 (stereo unspecified) please.
label 0

Tell me the assay call for Cc1ccc2c(C)c(C)c(=O)n(C)c2c1 please.
label 0

Tell me the assay call for O=C(OC1CCCCC1c1ccccc1)c1cc([N+](=O)[O-])cc([N+](=O)[O-])c1 (stereo unspecified) please.
label 0

Tell me the assay call for CCCCCCCCN(C)/N=N/c1nc[nH]c1C(=O)OCC please.
label 0

Tell me the assay call for Nc1ncn(C2OC(CO)C(O)C2O)c(=O)n1 (stereo unspecified) please.
label 1

Tell me the assay call for O=NN(CCCl)C(=O)NC1CC2CCC1C2 (stereo unspecified) please.
label 1
